This collection of values is drawn from paper PMC9386913.

- Procedure Text: Plasma pharmacokinetics in MAD study (LC-MS/MS)
- Format: in vivo, human (healthy volunteers)
- Test Context: human, plasma, oral; 150-mg dose level; read-out: Geometric mean Cmax expressed as molar concentration
Parameter Measured: Cmax

Cmax measured on CCOCc1cnc(Cl)nc1Oc1ccc2c(ccc3sc4c(c32)NC[C@@H](C)NC4=O)n1 = ~800 nM

----------
- Procedure Text: Plasma pharmacokinetics in MAD study (LC-MS/MS)
- Type: in vivo, human (healthy volunteers)
- Test Context: human, plasma; day 1, 150 mg oral; read-out: Geometric mean peak concentration (Cmax, CV%)
- Method: PK parameters were calculated via non-compartmental methodology using Phoenix version 7 or higher (Princeton, NJ).
Parameter Measured: Cmax (ng/mL)
One number for each entry, in ng/mL.

Cmax measured on CCOCc1cnc(Cl)nc1Oc1ccc2c(ccc3sc4c(c32)NC[C@@H](C)NC4=O)n1 = 257
